Each entry below carries its recorded viability.
- test.method.notes: growth inhibitors of H69AR lung tumor, primary screen, human, duplicate replicates (AID 580);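 also: 100% = mean luminescence of untreated wells and 0% = no signal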
- condition.details: H69AR lung tumor cells viability, ATP luminescence, 72 h; at 10 µM; stronger effect = lower value
The figure you give is taken to be in %; do not add the unit.

Known results for compounds:
{"compound": "CCC(=O)O[C@]1(C(=O)CCl)[C@@H](C)C[C@H]2[C@@H]3CCC4=CC(=O)C=C[C@]4(C)[C@@]3(F)[C@@H](O)C[C@@]21C", "unit.spec": "%", "viability": 87.3}
{"compound": "C=CCn1c(-c2ccc(OC)cc2)nc2ccccc21", "unit.spec": "%", "viability": 95.5}
{"compound": "COc1ccccc1C(=O)N1CCN=C1SCc1cccnc1", "unit.spec": "%", "viability": 96.8}

Determine from records and report viability for "Cn1cccc1Cc1nnc(SCC(=O)Nc2ccc(F)cc2)n1-c1ccc(F)cc1" 80.2

====

Each entry below carries its recorded viability.
- test.method.notes: HUVEC growth inhibition – cell-based, human, primary screen (AID 575);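 also: 100% = median of untreated cell wells with 0.1% DMSO on each plate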
- condition.details: HUVEC proliferation, CellTiter-Glo luminescence, 72 h; at 10 µM; stronger effect = lower value
Active and inactive are the calls of the source.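 Rule for the calls: active = viability at or below 30% in both replicate assays; inconclusive = viability at or below 30% in just one of the two assays; inactive = the rest.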

{"compound": "NC(N)=NS(=O)(=O)c1ccc(N)cc1", "result": "89.2% (inactive)"}
{"compound": "C=CCn1c(SCC(=O)NC23CC4CC(CC(C4)C2)C3)nc(O)cc1=O", "result": "91.4% (inactive)"}
{"compound": "CCOC(=O)c1sc(NC(=O)CNC(=O)Cn2cnc3sc(C)c(C)c3c2=O)nc1C", "result": "93.4% (inactive)"}
{"compound": "CCN(CC)c1nc2nonc2nc1N(CC)CC", "result": "110% (inactive)"}
{"compound": "CCOC(=O)c1ccc(NC(=O)CCc2nc(-c3cccc(C)c3)no2)cc1", "result": "40.8% (inactive)"}
{"compound": "Cc1csc2nc(CNC(=O)c3ccco3)cn12", "result": "95.6% (inactive)"}

Determine from records and report viability for "COc1ccc(NC(=O)CSc2nnc(-c3ccccc3C)n2C)cc1" 113% (inactive)

Determine from records and report viability for CCC(C)(C(=O)NC1CCCCC1)N(Cc1ccco1)C(=O)c1cnccn1 (stereo unspecified) 88.7% (inactive)

====

Each entry below carries its recorded viability.
- test.method.notes: reversal of MRP1-mediated doxorubicin resistance, pilot screen, H69AR cells, doxorubicin co-treatment (AID 601)
- condition.details: H69AR cells, CellTiter-Glo, 72 h; compound alone cytotoxicity; at 10 µM
The figure you give is taken to be in %; do not add the unit.

Known results for compounds:
{"compound": "O=C(Nc1c(-c2ccccc2)nc2ccccn12)c1ccco1", "recorded.number": 103}
{"compound": "CCOC(=O)CNC(=O)Nc1nnc(-c2ccc(OCC)cc2)o1", "recorded.number": 98.3}
{"compound": "CCCCCn1c(CN2CCN(C)CC2)nc2c1c(=O)n(C)c(=O)n2C", "recorded.number": 85.9}
{"compound": "CC1CCN(CC(O)COC2CCC(C(C)(C)C)CC2)CC1 (stereo unspecified)", "recorded.number": 74.5}

Determine from records and report viability for CCC(C)(C(=O)NC1CCCCC1)N(Cc1ccco1)C(=O)c1cnccn1 (stereo unspecified) 97.5

Determine from records and report viability for "COc1ccc(-n2c(Cc3cccn3C)nnc2SCC(=O)Nc2cccc(OC)c2)cc1" 98

Determine from records and report viability for COc1ccccc1C1C(C(C)=O)=C(O)C(=O)N1CCc1ccccc1 (stereo unspecified) 104

Determine from records and report viability for "c1ccc2nc(-c3nc4ccccc4[nH]3)ccc2c1" 66.6

Determine from records and report viability for "Cc1cc(NCCN(C)C)n2nc(-c3cccs3)cc2n1" 92.6

Determine from records and report viability for "CC(C)OC(=O)CSc1nc2cccnc2n1C1CCCCC1" 95.3

Determine from records and report viability for "O=C(COc1ccccc1)Nc1nc2ccccc2[nH]1" 91.5
